Parameter HepSE_liver fatty, tested on Hepatotoxicity, listed per item.
parameter: HepSE_liver fatty

- compound: "Nc1nnc(-c2cccc(Cl)c2Cl)c(N)n1 [LAMOTRIGINE]"
  tested.on: "Hepatotoxicity"
  parameter: "HepSE_liver fatty"
  measured.result: 0
- compound: "CC[C@H]1OC(=O)[C@H](C)[C@@H](O[C@H]2C[C@@](C)(OC)[C@@H](O)[C@H](C)O2)[C@H](C)[C@@H](O[C@@H]2O[C@H](C)C[C@H](N(C)C)[C@H]2O)[C@](C)(OC)C[C@@H](C)C(=O)[C@H](C)[C@@H](O)[C@]1(C)O [CLARITHROMYCIN]"
  tested.on: "Hepatotoxicity"
  parameter: "HepSE_liver fatty"
  measured.result: 0
- compound: "Cc1nc2ccc(CN(C)c3ccc(C(=O)N[C@@H](CCC(=O)O)C(=O)O)s3)cc2c(=O)[nH]1 [RALTITREXED]"
  tested.on: "Hepatotoxicity"
  parameter: "HepSE_liver fatty"
  measured.result: 0

====

Parameter HepSE_hepatitis, tested on Hepatotoxicity, listed per item.
parameter: HepSE_hepatitis

- molecule: "NCCCCCC(=O)O"
  parameter: "HepSE_hepatitis"
  measured.result: 0
- molecule: "COc1c(C)c2c(c(O)c1C/C=C(\\C)CCC(=O)O)C(=O)OC2"
  parameter: "HepSE_hepatitis"
  measured.result: 1
- molecule: "Nc1nc(=O)[nH]cc1F"
  parameter: "HepSE_hepatitis"
  measured.result: 0
- molecule: "O=c1n(CCCN2CCN(c3cccc(Cl)c3)CC2)nc2ccccn12"
  parameter: "HepSE_hepatitis"
  measured.result: 0
- molecule: "COC(=O)C(c1ccccc1)C1CCCCN1 (stereo not given) [METHYLPHENIDATE]"
  parameter: "HepSE_hepatitis"
  measured.result: 0

====

Parameter DILI positive/negative, tested on Hepatotoxicity, listed per item.
parameter: DILI positive/negative

- compound: "CCOC(=O)C1(c2ccccc2)CCN(CCc2ccc(N)cc2)CC1.Cl [ANILERIDINE HYDROCHLORIDE]"
  measured.result: 0
- compound: "COc1cccc(OC)c1C(=O)N[C@@H]1C(=O)N2[C@@H]1SC(C)(C)[C@@H]2C(=O)[O-].[Na+]"
  measured.result: 1
- compound: "C=C1c2cccc(O)c2C(=O)C2=C(O)[C@]3(O)C(=O)C(C(N)=O)=C(O)[C@@H](N(C)C)[C@@H]3[C@@H](O)[C@H]12.Cl [METHACYCLINE HYDROCHLORIDE]"
  measured.result: 1
- compound: "CC(=O)OCC1=C(C(=O)[O-])N2C(=O)[C@@H](NC(=O)Cc3cccs3)[C@H]2SC1.[Na+] [CEPHALOTHIN SODIUM]"
  measured.result: 1
- compound: "O=C(COc1ccc(Cl)cc1)N1CCN(Cc2ccc3c(c2)OCO3)CC1 [FIPEXIDE]"
  measured.result: 1
- compound: "COc1ccc(OC)c(C(O)C(C)N)c1.Cl (stereo not drawn) [METHOXAMINE HYDROCHLORIDE]"
  measured.result: 0
- compound: "C=C1CC[C@@]2(O)[C@H]3Cc4ccc(O)c5c4[C@@]2(CCN3CC2CC2)[C@H]1O5"
  measured.result: 0
- compound: "CC(N/C(=N\\C#N)Nc1ccncc1)C(C)(C)C (stereo not drawn) [PINACIDIL ANHYDROUS]"
  measured.result: 0
